assay: AUC in rat at 1 mg/kg, iv; type: ADME, organism-based; parameters: dose 1 mg/kg; details: in vivo
Endpoint name: AUC (ng·h/mL)
// note: answer is a bare numeric in ng·h/mL

query: Which AUC is listed for C[C@@H]1CN(c2ccc(S(C)(=O)=O)cc2F)CCN1c1nccc(C(=O)NC2C3CC4CC2CC(O)(C4)C3)n1 (stereo partly specified) ?
result: 1120

----------
molecular target: Mineralocorticoid receptor (Homo sapiens); assay: Antagonist activity at mineralocorticoid receptor (unknown origin)
Sequence (P08235 whole entry): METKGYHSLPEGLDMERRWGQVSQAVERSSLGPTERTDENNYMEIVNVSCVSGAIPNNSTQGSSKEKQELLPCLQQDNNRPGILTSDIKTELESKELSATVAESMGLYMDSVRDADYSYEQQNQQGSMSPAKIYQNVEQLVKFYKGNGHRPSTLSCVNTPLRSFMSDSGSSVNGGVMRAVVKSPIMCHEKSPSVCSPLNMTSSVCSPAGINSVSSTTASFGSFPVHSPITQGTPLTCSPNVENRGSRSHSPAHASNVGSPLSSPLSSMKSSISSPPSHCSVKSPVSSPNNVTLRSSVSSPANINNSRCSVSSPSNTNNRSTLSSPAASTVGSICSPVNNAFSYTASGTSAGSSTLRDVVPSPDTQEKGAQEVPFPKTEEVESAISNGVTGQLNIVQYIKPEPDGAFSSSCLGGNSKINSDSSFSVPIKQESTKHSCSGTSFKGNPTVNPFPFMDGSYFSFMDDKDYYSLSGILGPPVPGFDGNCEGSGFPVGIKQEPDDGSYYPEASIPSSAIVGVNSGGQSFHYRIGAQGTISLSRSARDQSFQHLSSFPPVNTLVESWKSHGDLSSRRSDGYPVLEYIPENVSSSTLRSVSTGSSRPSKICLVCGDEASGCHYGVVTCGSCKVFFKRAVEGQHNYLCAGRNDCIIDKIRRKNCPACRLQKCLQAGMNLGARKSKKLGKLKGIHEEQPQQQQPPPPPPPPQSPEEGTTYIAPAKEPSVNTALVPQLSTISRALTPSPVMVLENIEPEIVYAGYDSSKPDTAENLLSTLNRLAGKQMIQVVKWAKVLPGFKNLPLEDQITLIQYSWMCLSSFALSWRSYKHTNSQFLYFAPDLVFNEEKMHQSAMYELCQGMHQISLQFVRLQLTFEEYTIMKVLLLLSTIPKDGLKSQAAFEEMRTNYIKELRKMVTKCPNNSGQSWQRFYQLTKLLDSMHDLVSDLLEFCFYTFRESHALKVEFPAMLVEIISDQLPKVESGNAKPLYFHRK
Endpoint name: EC50

query: Which EC50 is listed for C[C@@H]1CN(c2ccc(S(C)(=O)=O)cc2F)CCN1c1nccc(C(=O)NC2C3CC4CC2CC(O)(C4)C3)n1 (stereo partly specified) ?
result: > 5 µM
